Entries and their IC50
System: purified, recombinant human DPIV (Homo sapiens, UniProt P27487)
Sequence (P27487 whole entry): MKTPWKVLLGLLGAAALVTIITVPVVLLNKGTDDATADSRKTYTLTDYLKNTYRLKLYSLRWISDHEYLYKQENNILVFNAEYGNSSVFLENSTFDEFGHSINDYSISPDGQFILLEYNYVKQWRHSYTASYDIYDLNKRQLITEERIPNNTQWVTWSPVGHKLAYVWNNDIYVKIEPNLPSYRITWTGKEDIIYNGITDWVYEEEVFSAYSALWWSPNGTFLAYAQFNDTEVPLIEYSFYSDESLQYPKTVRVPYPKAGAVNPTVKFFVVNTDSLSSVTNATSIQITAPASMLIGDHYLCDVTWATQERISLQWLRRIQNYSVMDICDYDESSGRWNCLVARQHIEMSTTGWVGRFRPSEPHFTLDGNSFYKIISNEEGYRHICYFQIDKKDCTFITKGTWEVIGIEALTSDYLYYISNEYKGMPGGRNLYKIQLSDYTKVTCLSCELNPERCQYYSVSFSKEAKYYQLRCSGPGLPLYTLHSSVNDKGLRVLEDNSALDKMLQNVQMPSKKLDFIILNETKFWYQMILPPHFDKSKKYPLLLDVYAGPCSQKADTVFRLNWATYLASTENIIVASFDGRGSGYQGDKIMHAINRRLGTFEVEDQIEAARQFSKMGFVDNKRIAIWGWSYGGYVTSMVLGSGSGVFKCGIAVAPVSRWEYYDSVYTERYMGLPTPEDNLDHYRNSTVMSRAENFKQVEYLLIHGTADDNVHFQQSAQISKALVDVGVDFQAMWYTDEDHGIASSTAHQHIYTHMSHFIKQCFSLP
Assay Overview: Measurement of DPIV activity (fluorogenic substrate (Ala-Pro)2-R110)
Result Type: IC50 (nM)

Compound: CCC(CC)(CNC(=O)CC(N)Cc1cc(F)ccc1F)CNC(=O)C(O)C(N)Cc1ccccc1 (stereo not shown) [drawing 59]
System: purified, recombinant human DPIV (Homo sapiens, UniProt P27487)
Result Type: IC50
Operator Symbol: =
Observed Measurement: 100

Compound: CCC(CC)(CNC(=O)CC(N)Cc1ccccc1)CNC(=O)C(O)C(N)Cc1ccccc1 (stereo not shown) [drawing 22]
System: purified, recombinant human DPIV (Homo sapiens, UniProt P27487)
Result Type: IC50
Operator Symbol: =
Observed Measurement: 2600

Compound: CCCCCCCCCCCCCCCCNC(CC(=O)NCC(C)(C)CNC(=O)C(O)C(Cc1ccccc1)NCCCCCCCCCCCCCCCC)Cc1cc(F)ccc1F (stereo not shown) [drawing 66]
System: purified, recombinant human DPIV (Homo sapiens, UniProt P27487)
Result Type: IC50
Operator Symbol: >
Observed Measurement: 50000

Compound: CC(C)(CNC(=O)C(O)C(N)Cc1ccccc1)CNC(=O)C(CC(=O)O)C(N)Cc1cc(F)ccc1F (stereo not shown) [drawing 56]
System: purified, recombinant human DPIV (Homo sapiens, UniProt P27487)
Result Type: IC50
Operator Symbol: =
Observed Measurement: 3700

Compound: NC(CC(=O)NC1CCCC(NC(=O)C(O)C(N)Cc2ccccc2)C1)Cc1cc(F)ccc1F (stereo not shown) [drawing 63]
System: purified, recombinant human DPIV (Homo sapiens, UniProt P27487)
Result Type: IC50
Operator Symbol: =
Observed Measurement: 120

Compound: NC(CC(=O)NCC1(CNC(=O)C(O)C(N)Cc2ccccc2)CCCC1)Cc1cc(F)ccc1F (stereo not shown) [drawing 68]
System: purified, recombinant human DPIV (Homo sapiens, UniProt P27487)
Result Type: IC50
Operator Symbol: =
Observed Measurement: 160

Compound: CC(C)(CNC(=O)CC(N)Cc1cc(F)ccc1F)CNC(=O)C(O)C(N)Cc1ccc(O)cc1 (stereo not shown) [drawing 73]
System: purified, recombinant human DPIV (Homo sapiens, UniProt P27487)
Result Type: IC50
Operator Symbol: =
Observed Measurement: 4600

Compound: NC(CC(=O)NCCCCNC(=O)C(O)C(N)Cc1ccc(C(=O)O)cc1)Cc1cc(F)ccc1F (stereo not shown) [drawing 45]
System: purified, recombinant human DPIV (Homo sapiens, UniProt P27487)
Result Type: IC50
Operator Symbol: =
Observed Measurement: 470

Compound: CN(CCCNC(=O)OCc1ccccc1)C(=O)C(O)C(N)Cc1ccccc1 (stereo not shown) [drawing 72]
System: purified, recombinant human DPIV (Homo sapiens, UniProt P27487)
Result Type: IC50
Operator Symbol: >
Observed Measurement: 50000

Compound: NC(CNC(=O)c1cccc(NC(=O)C(O)C(N)Cc2ccc(-c3cccnc3)cc2)c1)Cc1cc(F)ccc1F (stereo not shown) [drawing 79]
System: purified, recombinant human DPIV (Homo sapiens, UniProt P27487)
Result Type: IC50
Operator Symbol: =
Observed Measurement: 775

Compound: CN(CCCNC(=O)C(O)C(N)Cc1ccccc1)C(=O)CC(N)Cc1cc(F)ccc1F (stereo not shown) [drawing 37]
System: purified, recombinant human DPIV (Homo sapiens, UniProt P27487)
Result Type: IC50
Operator Symbol: =
Observed Measurement: 72

Compound: CCCCCCCCCC(=O)OC(C(=O)NCC(C)(C)CNC(=O)CC(N)Cc1cc(F)ccc1F)C(N)Cc1ccccc1 (stereo not shown) [drawing 48]
System: purified, recombinant human DPIV (Homo sapiens, UniProt P27487)
Result Type: IC50
Operator Symbol: =
Observed Measurement: 200

Compound: NC(CC(=O)NCCNC(=O)C(O)C(N)Cc1ccccc1)Cc1ccccc1 (stereo not shown) [drawing 14]
System: purified, recombinant human DPIV (Homo sapiens, UniProt P27487)
Result Type: IC50
Operator Symbol: =
Observed Measurement: 800

Compound: CCCCCCCCCCCCCC(=O)OC(C(=O)NCC(C)(C)CNC(=O)CC(N)Cc1cc(F)ccc1F)C(N)Cc1ccccc1 (stereo not shown) [drawing 46]
System: purified, recombinant human DPIV (Homo sapiens, UniProt P27487)
Result Type: IC50
Operator Symbol: =
Observed Measurement: 1000

Compound: CCCC(=O)NC(CC(=O)NCC(C)(C)CNC(=O)C(O)C(Cc1ccccc1)NC(=O)CCC)Cc1cc(F)ccc1F (stereo not shown) [drawing 38]
System: purified, recombinant human DPIV (Homo sapiens, UniProt P27487)
Result Type: IC50
Operator Symbol: >
Observed Measurement: 50000

Compound: NC(CC(=O)NCCCNC(=O)C(O)C(N)Cc1ccccc1)Cc1cc(F)ccc1F (stereo not shown) [drawing 31]
System: purified, recombinant human DPIV (Homo sapiens, UniProt P27487)
Result Type: IC50
Operator Symbol: =
Observed Measurement: 500

Sourced from patent US20120258960A1
